Experimental Target: Sterol 14-alpha demethylase (Trypanosoma cruzi (strain CL Brener))
Assay Comment: TcCYP51 inhibitors, dose response, mechanism study for T. cruzi antiparasitic project, biochemical, recombinant enzyme (AID 1159558);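 also: enzyme in bacterial membranes with Anopheles gambiae CYP reductase and cytochrome b5 partners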
Condition Notes: recombinant T. cruzi CYP51, BOMCC fluorescence
Active and inactive are the calls of the source.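 The calls were made as follows: active = IC50 against T. cruzi CYP51 below a set limit; inactive = the rest.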
# output must be one of true (1) (active), false (0) (inactive)

Use the examples below as a reference point.
Cc1[nH]nc(C(F)(F)F)c1NC(=O)CCn1cc(Cl)c([N+](=O)[O-])n1
false (0)
CC(Cn1ccnc1)NC(=O)C=Cc1ccc(Cl)cc1 (configuration not stated)
true (1)
Cc1nc(N2CCC(C(=O)N3CCC(O)(c4cccnc4)CC3)CC2)nc2ccc(C(C)C)cc12
true (1)
COc1cccc(CCNC(=O)C(c2cn[nH]c2)N2CCN(c3ccc(Cl)cc3)CC2)c1 (configuration not stated)
true (1)
CCN(CC)c1nc(Nc2ccncc2)nc2ccccc12
false (0)

query: # lookup: test call for O=C(Nc1cccc(Cl)c1)Nc1ccc([N+](=O)[O-])cc1Cl
result: true (1)

query: Please indicate how the test categorized CC1CCCCN1C(=O)NCCc1coc(-c2ccc(F)cc2)n1 (configuration not stated) .
result: false (0)

query: What is the recorded call for this compound in the test? Cc1nc(N2CC(C)OC(C)C2)sc1C(=O)Nc1ccc2c(c1)OCO2 (configuration not stated)
result: true (1)

query: Give the logged outcome of this assay for the following compound: CS(=O)(=O)NC1CCC(Nc2ncc(Br)c(Nc3ccccc3C(N)=O)n2)CC1 (configuration not stated)
result: false (0)

query: Hey, what did the test say about COc1ccc(CN(C)Cc2ccncc2)cc1-c1ccc(S(=O)(=O)NC2CCC2)s1 ?
result: true (1)

query: Field: outcome | Entry: COc1ccc(NS(=O)(=O)c2cc(NC(=O)Cc3ccc(C)cc3)ccc2N2CCOCC2)cc1
result: false (0)

query: Give the logged outcome of this assay for the following compound: O=C(NCC(c1cccs1)N1CCOCC1)c1ccc([N+](=O)[O-])o1 (configuration not stated)
result: true (1)

* * *

Experimental Target: Sterol 14-alpha demethylase (Trypanosoma cruzi (strain CL Brener)) (UniProt Q7Z1V1)
Sequence (Q7Z1V1 whole entry, looked up): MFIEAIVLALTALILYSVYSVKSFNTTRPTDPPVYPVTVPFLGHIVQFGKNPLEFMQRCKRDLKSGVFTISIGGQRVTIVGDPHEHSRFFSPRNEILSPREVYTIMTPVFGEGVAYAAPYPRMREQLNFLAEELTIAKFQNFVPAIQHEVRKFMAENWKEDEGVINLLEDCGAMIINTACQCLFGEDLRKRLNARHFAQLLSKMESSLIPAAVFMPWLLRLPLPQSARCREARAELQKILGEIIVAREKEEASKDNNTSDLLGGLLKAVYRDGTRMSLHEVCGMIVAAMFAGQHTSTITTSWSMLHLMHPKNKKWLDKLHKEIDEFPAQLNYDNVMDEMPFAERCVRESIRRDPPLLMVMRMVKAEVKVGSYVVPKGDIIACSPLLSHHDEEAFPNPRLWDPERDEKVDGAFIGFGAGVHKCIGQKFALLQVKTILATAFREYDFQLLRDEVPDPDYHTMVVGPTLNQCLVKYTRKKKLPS
Assay Comment: TcCYP51 inhibitors, dose response, mechanism study for T. cruzi antiparasitic project, biochemical, recombinant enzyme (AID 1159558)
Condition Notes: recombinant T. cruzi CYP51, BOMCC fluorescence
Active and inactive are the calls of the source.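 The calls were made as follows: active = IC50 against T. cruzi CYP51 below a set limit; inactive = the rest.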
Form entry, call: pick from 1 (yes) (active), 0 (no) (inactive)

Field: example entries. Status: answers known.
Cc1ccc(NC(=O)c2ccc([N+](=O)[O-])s2)cc1S(=O)(=O)N1CCOCC1
1 (yes)
CC(C)(C)Nc1nc(Nc2ccc3c(c2)CS(=O)(=O)C3)nc2[nH]ccc12
1 (yes)
N#Cc1cc([N+](=O)[O-])ccc1NC1CCCCCC1
0 (no)
CNc1c(C(N)=O)c(-c2ccc3scnc3c2)nn1CC(F)(F)F
0 (no)
Cc1ccc(C)c(OC2CCN(C(=O)C(C)n3ccnc3)CC2)c1 (configuration not stated)
1 (yes)

query: Just curious, what result did COc1ccc(Cc2nc(-c3ncc4cccnc4c3O)n[nH]2)cc1OC get here?
result: 0 (no)

query: Test call for this compound, please: O=C(CCCNC(=O)c1ccc(Cl)cc1)Nc1nc(-c2ccccn2)cs1
result: 1 (yes)

query: For CC(c1cc(Cl)cc(Cl)c1)N(C)c1ncc2c(N)nc(N)nc2n1 (configuration not stated) , what call appears in the results of this test?
result: 1 (yes)

query: Tell me the assay call for Cc1ccc(NC(=O)C(C)n2nc([N+](=O)[O-])c(Br)c2C)cc1Cl (configuration not stated) please.
result: 0 (no)

query: Please state the recorded outcome for this compound: Cc1cc(N(C)C)nc(Nc2ccccc2C)n1
result: 0 (no)

query: Answer briefly: the call reported for O=C1c2cnc(N3CCCC3)nc2CN1c1ccc2c(c1)OCO2 in this assay.
result: 0 (no)

query: What outcome does the record of this test show for COc1ccc(CN2CCCCC2c2nc(-c3cccnc3)no2)cc1 (configuration not stated) ?
result: 1 (yes)

* * *

Experimental Target: Sterol 14-alpha demethylase (Trypanosoma cruzi (strain CL Brener))
Assay Comment: TcCYP51 inhibitors, dose response, mechanism study for T. cruzi antiparasitic project, biochemical, recombinant enzyme (AID 1159558)
Condition Notes: recombinant T. cruzi CYP51, BOMCC fluorescence
The source made the active and inactive calls.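 The calls were made as follows: active = IC50 against T. cruzi CYP51 below a set limit; inactive = the rest.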
Reply using exactly one outcome from 1 (yes) (active), 0 (no) (inactive)

CCOc1ccc(NC(=O)C=Cc2ccc(CC)o2)cc1
0 (no)
Fc1ccc(Nc2nc(-c3ccccn3)cs2)cc1
1 (yes)

query: Answer briefly: the call reported for O=C(NNC(=O)c1ccccn1)c1ccc(-c2ccccc2)cc1 in this assay.
result: 1 (yes)

* * *

Experimental Target: Sterol 14-alpha demethylase (Trypanosoma cruzi (strain CL Brener)) (UniProt Q7Z1V1)
Assay Comment: TcCYP51 inhibitors, dose response, mechanism study for T. cruzi antiparasitic project, biochemical, recombinant enzyme (AID 1159558)
Condition Notes: recombinant T. cruzi CYP51, BOMCC fluorescence
Calls of active or inactive are those of the source.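 The calls were made as follows: active = IC50 against T. cruzi CYP51 below a set limit; inactive = the rest.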
Result category, one only: active, inactive

These recorded examples may help you get a feel for the data.
COc1ccc(S(=O)(=O)NCc2ccc(-c3ccc(CN(C)CCO)cc3)cc2)cc1
active
CN(C)c1ncc(-c2cncn2CCOc2ccc(Cl)cc2)cn1
active
CNc1nc(C)nc(N2CCc3cc(C(=O)NCc4ccc(-c5ccn[nH]5)cc4Cl)ccc32)n1
active
COc1ccc(C(=O)Nc2cc(C(F)(F)F)ccc2N2CCOCC2)c(OC)c1
inactive
Cc1ccc(Nc2nc(C3CCCN3Cc3ccn[nH]3)cs2)nc1 (stereo not given)
active
Oc1c(-c2n[nH]c(CCc3ccccc3)n2)ncc2cccnc12
inactive

query: # fetch the recorded call for CN(C)Cc1cccc(Nc2nccc(-c3ccc(NCCN)c(C#N)c3)n2)c1 here
result: active

query: Hi, do you know how CCOc1ccc(CN(C)Cc2nc(N)nc(Nc3ccc(C)cc3)n2)cc1 came out in this test?
result: active

query: Lab log entry: CNC(=O)C1Cc2ccccc2N1C(=O)Cc1ccc(OC)cc1 (stereo not given) — outcome as called in the assay?
result: inactive

query: Test call, this molecule: COc1ccc(CNc2cc(C3CC3)nc(-c3nccn3C)n2)cc1
result: active

* * *

Experimental Target: Sterol 14-alpha demethylase (Trypanosoma cruzi (strain CL Brener)) (UniProt Q7Z1V1)
Assay Comment: TcCYP51 inhibitors, dose response, mechanism study for T. cruzi antiparasitic project, biochemical, recombinant enzyme (AID 1159558);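 also: enzyme in bacterial membranes with Anopheles gambiae CYP reductase and cytochrome b5 partners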
Condition Notes: recombinant T. cruzi CYP51, BOMCC fluorescence
pIC50: −log10 of the molar value.
# label = 1 if pIC50 >= 5 else 0

Would you please look over these solved cases?
NCc1ccc2c(Cl)cc(Cl)c(O)c2n1
0
CN(Cc1ccccc1)Cc1nnnn1C1CCN(Cc2ccc(-n3ccnc3)cc2)CC1
1
CN1CCC(N(C)c2nccc(N3CCN(C(=O)c4cccc(-c5cccnc5)c4)CC3)n2)CC1
1

query: Hello, I need to know if Cc1cc(Br)cc(C(=O)c2c(C(C)C)c(=O)[nH]c(=O)n2Cc2ccnc(N)c2)c1 has measured pIC50 not below 5. Thanks!
result: 1

query: In plain terms: is recorded pIC50 at least 5 for C[C@@H](Oc1cc(-n2cnc3ccc(CC(O)CO)cc32)sc1C(N)=O)c1ccccc1Cl (stereo not given in full) ?
result: 0

query: State whether the measured pIC50 reaches 5, counting equality as reaching it, for O=C(Nc1nc(-c2ccccn2)cs1)N1C[C@H]2C[C@@]2(c2ccccc2)C1
result: 0

* * *

Experimental Target: Sterol 14-alpha demethylase (Trypanosoma cruzi (strain CL Brener)) (UniProt Q7Z1V1)
Assay Comment: TcCYP51 inhibitors, dose response, mechanism study for T. cruzi antiparasitic project, biochemical, recombinant enzyme (AID 1159558);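 also: enzyme in bacterial membranes with Anopheles gambiae CYP reductase and cytochrome b5 partners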
Condition Notes: recombinant T. cruzi CYP51, BOMCC fluorescence
The source made the active and inactive calls.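 Rule for the calls: active = IC50 against T. cruzi CYP51 below a set limit; inactive = the rest.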
Respond only with the outcome that fits, drawn from yes (1) (active), no (0) (inactive)

Consider the worked cases shown below.
CC1CN(S(=O)(=O)c2ccc(NC(=O)c3cc(C4CC4)nc4c3cnn4C(C)C)cc2)CC(C)O1 (stereo not drawn)
no (0)
CC(=Cc1ccccc1)CN1CCC(=O)N(Cc2cccnc2)CC1
yes (1)

Moving on to another molecule below.
query: Short answer needed: outcome of this test for Cn1c(CN2CCN(c3ncc(C(F)(F)F)cc3Cl)CC2)nc2ccncc21 ?
result: yes (1)

* * *

Quick reference for IC50 among some compounds
Experimental Target: Sterol 14-alpha demethylase (Trypanosoma cruzi (strain CL Brener))
Assay Comment: TcCYP51 inhibitors, dose response, mechanism study for T. cruzi antiparasitic project, biochemical, recombinant enzyme (AID 1159558);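 also: enzyme in bacterial membranes with Anopheles gambiae CYP reductase and cytochrome b5 partners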
Condition Notes: recombinant T. cruzi CYP51, BOMCC fluorescence
The source made the active and inactive calls.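 Rule for the calls: active = IC50 against T. cruzi CYP51 below a set limit; inactive = the rest.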

Use these answered entries as a reference point.
O=C(COc1ncnc2cc([N+](=O)[O-])ccc12)NC(=O)NC1CCCCC1
> 100 µM (inactive)
Nc1nc(-c2ccccn2)nc(N)c1Cc1c(F)cccc1Cl
> 100 µM (inactive)

query: // lookup IC50 for CC(C)(C)C(=O)Nc1cc(C2CC2)nn1-c1nc2c(c(=O)[nH]1)CCCC2
result: > 100 µM (inactive)

query: Query (compound): O=C(N[C@H](CO)c1ccccc1)c1ccc(-c2c[nH]c3nccc(C(F)(F)F)c23)s1 ; field requested: IC50
result: 6.3 µM

query: Quick one: IC50 for COc1cccc(C(=O)[C@H]2C[C@@H]2CN(Cc2ccccn2)Cc2ccccn2)c1 ?
result: 32 µM

query: Need IC50, item COc1ccc(CNc2nsc3ccccc23)cc1OC
result: 13 µM

query: Entry NS(=O)(=O)c1ccc(Nc2nccc(-c3cnn4ncccc34)n2)cc1 has what IC50?
result: > 100 µM (inactive)

query: Quick check: IC50 of Cc1c([N+](=O)[O-])c(C(=O)Nc2sc3c(c2C#N)CCC(C)C3)nn1C (stereo not given) ?
result: > 100 µM (inactive)

query: For NS(=O)(=O)c1ccc(CNC(=O)c2ccc([N+](=O)[O-])s2)cc1 , what is its reported IC50?
result: 40 µM

query: Reported IC50, compound COc1ccc2ncc(=O)n(CCN3CCC(NCc4ccc(-c5cccs5)cc4)CC3)c2n1 : ____
result: 25 µM
